Data origin, for the record: ChEMBL document CHEMBL4825763

Assay: AUC (0 to infinity) in mouse at 10 mg/kg, ig administered as single dose measured upto 24 hrs by LC-MS/MS analysis
Type: ADME, organism-based
Design: route intragastric, dose 10 mg/kg, time <=24
Conditions: in vivo, po
Quantity: AUC(0-inf)
Put your answer as a value accompanied by its unit after it.

Hi there! I need AUC(0-inf) for each item below, if you can.
1. CC1(C)CCC(CN2CCN(c3ccc(C(=O)NS(=O)(=O)c4ccc(NCC5CCOCC5)c([N+](=O)[O-])c4)c(Oc4cnc5[nH]ccc5c4)c3)CC2)=C(c2ccc(Cl)cc2)C1
2. CC1(C)CCC(CN2CCN(c3ccc(C(=O)NS(=O)(=O)c4ccc(OCC5CCOCC5)c([N+](=O)[O-])c4)c(Oc4cnc5[nH]ccc5c4)c3)CC2)=C(c2ccc(C(F)(F)F)cc2)C1

8100 ng·h/mL
7000 ng·h/mL

---

Test: Metabolic stability in human liver microsomes assessed as parent compound remaining incubated for 60 mins in presence of NADPH
Assay type: ADME, Microsome
Conditions: read-out: Stabilty
Assign remaining at 1 h to each entry below.
Put your answer as a value accompanied by its unit after it.

Smiles Str	remaining at 1 h
CC1(C)CCC(CN2CCN(c3ccc(C(=O)NS(=O)(=O)c4ccc(NCC5CCOCC5)c([N+](=O)[O-])c4)c(Oc4cnc5[nH]ccc5c4)c3)CC2)=C(c2ccc(Cl)cc2)C1	54.9%

We now examine a further compound.
# query: remaining at 1 h of entry CC1(C)CCC(CN2CCN(c3ccc(C(=O)NS(=O)(=O)c4ccc(OCC5CCOCC5)c([N+](=O)[O-])c4)c(Oc4cnc5[nH]ccc5c4)c3)CC2)=C(c2ccc(C(F)(F)F)cc2)C1
75.8%

---

IC50, Apoptosis regulator Bcl-2 (Homo sapiens, UniProt P10415): measured values
Answers are plain numbers, in nM.

In the examples that follow, each entry is paired with its recorded IC50.
Compound	IC50 / nM
CN1CCC(COc2ccc(S(=O)(=O)NC(=O)c3ccc(N4CCN(CC5=C(c6ccc(C(F)(F)F)cc6)CC(C)(C)CC5)CC4)cc3Oc3cnc4[nH]ccc4c3)cc2[N+](=O)[O-])C1 (centres undefined)	0.75
CC1(C)CCC(CN2CCN(c3ccc(C(=O)NS(=O)(=O)c4ccc(NCC5CCOCC5)c([N+](=O)[O-])c4)c(Oc4cnc5[nH]ccc5c4)c3)CC2)=C(c2ccccc2C(F)(F)F)C1	1.7
CC1(C)CCC(CN2CCN(c3ccc(C(=O)NS(=O)(=O)c4ccc(OCC5CCSCC5)c([N+](=O)[O-])c4)c(Oc4cnc5[nH]ccc5c4)c3)CC2)=C(c2ccc(C(F)(F)F)cc2)C1	1.65

We now examine a further compound.
Requested read-out IC50, target or system Apoptosis regulator Bcl-2 (Homo sapiens, UniProt P10415), entry CC1(C)CCC(CN2CCN(c3ccc(C(=O)NS(=O)(=O)c4ccc(OCC5CCOCC5)c([N+](=O)[O-])c4)c(Oc4cnc5[nH]ccc5c4)c3)CC2)=C(c2ccc(C(F)(F)F)cc2)C1
1
